target: pig TRPM8 (Sus scrofa)
Construct: expressed in transfected cells; host or cells: CHO (pcDNA5/FRT/TO vector; hygromycin B and blasticidin selection)
procedure-summary: In vitro pig TRPM8 fluorescence calcium flux assay (recombinant CHO cells, Fluo4-AM, FDSS6000)
Assay type: cell-based
details: recombinant CHO cells expressing pig TRPM8; menthol-related EC50, normalized to 100 μM menthol
Where a name gives a salt, the structure may show the parent alone.
outcome-measure: pEC50
Answers are plain numbers, as −log10 of the molar value.

>>> df
                                   compound  observed_result
0  CC(C)[C@@H]1CC[C@@H](C)C[C@@]1(O)C(=O)NCC(=O)c1ccc(O)c(O)c1             8.54
1  CC(C)[C@@H]1CC[C@@H](C)C[C@@]1(O)C(=O)NCc1cccc(O)c1             6.43
2  CC(C)[C@@H]1CC[C@@H](C)C[C@@]1(O)C(=O)NC[C@H](O)c1ccccc1             6.45
3  CC(C)[C@@H]1CC[C@@H](C)C[C@@]1(O)C(=O)NCCc1cccc(CO)c1             8.68
4  COC(=O)[C@H](N)COc1cccc(CCNC(=O)[C@]2(O)C[C@H](C)CC[C@H]2C(C)C)c1             8.26

Hi team, please reply with pEC50 for each item in this list.
1. CC(C)[C@@H]1CC[C@@H](C)C[C@@]1(O)C(=O)NCC(=O)c1cc(F)cc(F)c1
2. CC(C)[C@@H]1CC[C@@H](C)C[C@@]1(O)C(=O)NCC(C(=O)OCC(C)(C)N)c1ccccc1 (stereo partly drawn) [Example 73, hydrochloride]
3. CC(C)[C@@H]1CC[C@@H](C)C[C@@]1(O)C(=O)NCCc1cccc(C(N)=O)c1

1. 8.77
2. 8.10
3. 7.62

Hi team, please reply with pEC50 for each item in this list.
1. CC(C)[C@@H]1CC[C@@H](C)C[C@@]1(O)C(=O)NC[C@H](O)c1cccc(CO)c1
2. CC(C)[C@@H]1CC[C@@H](C)C[C@@]1(O)C(=O)NCC(O)(c1ccccc1)C(F)(F)F (single isomer, unassigned) [Example 83]
3. COc1ccccc1CCNC(=O)[C@]1(O)C[C@H](C)CC[C@H]1C(C)C
4. CC(C)[C@@H]1CC[C@@H](C)C[C@@]1(O)C(=O)NCC(=O)c1ccc(O)cc1

1: 7.24; 2: 6.87; 3: 7.76; 4: 8.14

###

What EC50 was measured for each of the following?
target: pig TRPM8 (Sus scrofa, UniProt F1SM15)
Construct: expressed in transfected cells; host or cells: CHO (pcDNA5/FRT/TO vector; hygromycin B and blasticidin selection)
Sequence (F1SM15 1-1104): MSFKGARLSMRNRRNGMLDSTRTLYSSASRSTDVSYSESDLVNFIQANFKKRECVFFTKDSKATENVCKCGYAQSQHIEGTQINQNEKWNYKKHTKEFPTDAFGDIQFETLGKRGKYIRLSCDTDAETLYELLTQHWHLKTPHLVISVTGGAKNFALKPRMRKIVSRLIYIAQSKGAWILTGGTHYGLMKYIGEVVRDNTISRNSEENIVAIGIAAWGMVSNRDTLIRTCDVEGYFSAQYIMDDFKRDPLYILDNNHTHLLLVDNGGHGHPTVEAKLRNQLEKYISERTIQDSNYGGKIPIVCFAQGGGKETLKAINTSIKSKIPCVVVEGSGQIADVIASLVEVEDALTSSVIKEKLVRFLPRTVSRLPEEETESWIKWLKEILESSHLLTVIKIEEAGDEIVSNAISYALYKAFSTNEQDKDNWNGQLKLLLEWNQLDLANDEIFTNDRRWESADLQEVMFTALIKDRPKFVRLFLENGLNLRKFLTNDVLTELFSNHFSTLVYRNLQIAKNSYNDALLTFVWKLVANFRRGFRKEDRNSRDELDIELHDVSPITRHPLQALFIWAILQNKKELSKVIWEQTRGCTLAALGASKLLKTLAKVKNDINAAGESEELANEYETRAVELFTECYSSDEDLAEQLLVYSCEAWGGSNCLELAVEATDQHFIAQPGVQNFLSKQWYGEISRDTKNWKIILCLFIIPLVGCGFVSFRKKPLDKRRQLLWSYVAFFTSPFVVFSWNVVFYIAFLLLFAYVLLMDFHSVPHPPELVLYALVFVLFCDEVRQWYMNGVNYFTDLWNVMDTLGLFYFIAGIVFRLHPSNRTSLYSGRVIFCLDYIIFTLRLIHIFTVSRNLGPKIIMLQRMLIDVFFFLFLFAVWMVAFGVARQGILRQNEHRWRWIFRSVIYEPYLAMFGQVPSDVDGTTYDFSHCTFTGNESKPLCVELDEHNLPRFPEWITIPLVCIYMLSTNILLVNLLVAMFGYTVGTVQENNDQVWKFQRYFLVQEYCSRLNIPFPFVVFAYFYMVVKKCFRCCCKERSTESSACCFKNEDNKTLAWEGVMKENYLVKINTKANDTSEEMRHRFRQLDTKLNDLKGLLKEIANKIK
procedure-summary: In vitro pig TRPM8 fluorescence calcium flux assay (recombinant CHO cells, Fluo4-AM, FDSS6000)
Assay type: cell-based
details: recombinant CHO cells expressing pig TRPM8; menthol-related EC50, normalized to 100 μM menthol
Answers are plain numbers, in µM.

>>> print(df.to_string())
                                   compound                                  target  outcome_measure  observed_result
0  CC(C)[C@@H]1CC[C@@H](C)C[C@@]1(O)C(=O)NCC1(c2cccc(COC3CCCCO3)c2)COC1 (stereo partly shown)  pig TRPM8 (Sus scrofa, UniProt F1SM15)             EC50            0.174
1  CC(C)[C@@H]1CC[C@@H](C)C[C@@]1(O)C(=O)NCC(=O)c1cccc(O)c1  pig TRPM8 (Sus scrofa, UniProt F1SM15)             EC50           0.0009
2  CC(C)[C@@H]1CC[C@@H](C)C[C@@]1(O)C(=O)N[C@@H](CO)Cc1ccc(O)cc1  pig TRPM8 (Sus scrofa, UniProt F1SM15)             EC50           0.0603
3  COC(=O)CC(CNC(=O)[C@]1(O)C[C@H](C)CC[C@H]1C(C)C)c1ccccc1 (stereo partly shown)  pig TRPM8 (Sus scrofa, UniProt F1SM15)             EC50            0.729
4  CC(C)[C@@H]1CC[C@@H](C)C[C@@]1(O)C(=O)NCc1cccc(CO)c1  pig TRPM8 (Sus scrofa, UniProt F1SM15)             EC50            0.516

Hi team, please reply with EC50 for each item in this list.
1. CC(C)[C@@H]1CC[C@@H](C)C[C@@]1(O)C(=O)NCC(O)c1cccc(O)c1 (stereo partly shown)
2. CC(C)[C@@H]1CC[C@@H](C)C[C@@]1(O)C(=O)NCC(=O)c1ccc(F)c(F)c1

0.003
0.0013

###

target: human TRPM8 (Homo sapiens, UniProt Q7Z2W7)
Construct: expressed in transfected cells; host or cells: CHO (p658 mammalian expression vector)
Sequence (Q7Z2W7 whole entry): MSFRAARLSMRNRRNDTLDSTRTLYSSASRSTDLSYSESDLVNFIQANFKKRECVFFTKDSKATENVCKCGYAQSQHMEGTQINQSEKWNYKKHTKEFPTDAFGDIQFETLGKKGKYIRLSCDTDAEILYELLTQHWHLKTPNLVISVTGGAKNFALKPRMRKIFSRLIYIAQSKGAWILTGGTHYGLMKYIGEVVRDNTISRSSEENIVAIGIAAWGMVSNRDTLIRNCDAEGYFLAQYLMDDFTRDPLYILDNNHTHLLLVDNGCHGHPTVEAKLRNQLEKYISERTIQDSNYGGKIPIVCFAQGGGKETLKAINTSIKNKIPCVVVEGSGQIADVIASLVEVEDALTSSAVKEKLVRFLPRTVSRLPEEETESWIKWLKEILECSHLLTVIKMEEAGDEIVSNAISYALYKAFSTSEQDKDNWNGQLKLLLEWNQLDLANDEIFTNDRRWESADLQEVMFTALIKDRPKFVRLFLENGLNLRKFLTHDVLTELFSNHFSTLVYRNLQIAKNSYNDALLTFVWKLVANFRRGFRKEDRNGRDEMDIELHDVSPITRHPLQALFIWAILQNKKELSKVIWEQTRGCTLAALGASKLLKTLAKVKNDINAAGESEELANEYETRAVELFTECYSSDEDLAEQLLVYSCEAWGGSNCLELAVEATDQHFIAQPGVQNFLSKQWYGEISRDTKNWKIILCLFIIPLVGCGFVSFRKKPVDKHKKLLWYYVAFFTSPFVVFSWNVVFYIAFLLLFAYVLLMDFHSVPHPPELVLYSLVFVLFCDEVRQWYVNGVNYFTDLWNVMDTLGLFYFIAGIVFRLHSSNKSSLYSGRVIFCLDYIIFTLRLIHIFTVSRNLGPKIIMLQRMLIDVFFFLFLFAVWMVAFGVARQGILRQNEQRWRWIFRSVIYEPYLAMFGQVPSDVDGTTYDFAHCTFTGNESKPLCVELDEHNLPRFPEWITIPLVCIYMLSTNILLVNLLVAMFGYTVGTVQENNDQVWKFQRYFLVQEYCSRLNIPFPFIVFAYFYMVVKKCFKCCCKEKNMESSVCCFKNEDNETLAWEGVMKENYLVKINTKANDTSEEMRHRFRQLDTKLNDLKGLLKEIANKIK
procedure-summary: In vitro human TRPM8 fluorescence calcium flux assay (recombinant CHO cells, Fluo4-AM, FDSS6000)
Assay type: cell-based
details: recombinant CHO cells expressing human TRPM8; menthol-related EC50, normalized to 100 μM menthol
outcome-measure: pEC50
Answers are plain numbers, as −log10 of the molar value.

>>> print(df.to_string())
                                   molecule                                    target  observed_result
0  Cc1cccc([C@@H](O)CNC(=O)[C@]2(O)C[C@H](C)CC[C@H]2C(C)C)c1  human TRPM8 (Homo sapiens, UniProt Q7Z2W7)             7.31
1  CC(C)[C@@H]1CC[C@@H](C)C[C@@]1(O)C(=O)NCC1(c2cccc(COC3CCCCO3)c2)COC1 (some centres unmarked)  human TRPM8 (Homo sapiens, UniProt Q7Z2W7)             6.42
2  COc1cc(CO)ccc1OC(=O)CNC(=O)[C@]1(O)C[C@H](C)CC[C@H]1C(C)C  human TRPM8 (Homo sapiens, UniProt Q7Z2W7)             7.07
3  COC(=O)C(CNC(=O)[C@]1(O)C[C@H](C)CC[C@H]1C(C)C)c1ccccc1 (some centres unmarked)  human TRPM8 (Homo sapiens, UniProt Q7Z2W7)             7.34

Provide one value: measured pEC50 of CC(C)[C@@H]1CC[C@@H](C)C[C@@]1(O)C(=O)NCCOC(=O)c1ccccc1
7.14

###

target: pig TRPM8 (Sus scrofa)
Construct: expressed in transfected cells; host or cells: CHO (pcDNA5/FRT/TO vector; hygromycin B and blasticidin selection)
procedure-summary: In vitro pig TRPM8 fluorescence calcium flux assay (recombinant CHO cells, Fluo4-AM, FDSS6000)
Assay type: cell-based
details: recombinant CHO cells expressing pig TRPM8; menthol-related EC50, normalized to 100 μM menthol
outcome-measure: pEC50
Answers are plain numbers, as −log10 of the molar value.

In [3]: df
Out[3]:
                                   compound  observed_result
0  CC(C)[C@@H]1CC[C@@H](C)C[C@@]1(O)C(=O)NCCc1ccccn1             7.82

Hi team, please reply with pEC50 for each item in this list.
1. CC(C)[C@@H]1CC[C@@H](C)C[C@@]1(O)C(=O)NCCO
2. CC(C)[C@@H]1CC[C@@H](C)C[C@@]1(O)C(=O)NCCc1cccc(OCC(O)CO)c1 (some centres unmarked)
3. CC(C)[C@@H]1CC[C@@H](C)C[C@@]1(O)C(=O)NCC(NC(=O)CN)c1ccccc1 (single isomer, unassigned) [Example 183]

1: 6.19; 2: 8.01; 3: 8.55

###

target: pig TRPM8 (Sus scrofa, UniProt F1SM15)
Construct: expressed in transfected cells; host or cells: CHO (pcDNA5/FRT/TO vector; hygromycin B and blasticidin selection)
procedure-summary: In vitro pig TRPM8 automated patch-clamp assay (SyncroPatch 384PE, CHO cells)
Format: cell-based
details: CHO cells expressing pig TRPM8, 28° C.
Structures can show the parent of a compound that is named as a salt.
What log10(EC50) was measured for each of the following?
// stored as log10 of EC50 expressed in nM

>>> print(df.to_string())
                                   compound                                  target  observed_result
0  CC(C)[C@@H]1CC[C@@H](C)C[C@@]1(O)C(=O)NCC(C(=O)OCCN)c1ccccc1 (stereo partly shown) [Example 71, hydrochloride]  pig TRPM8 (Sus scrofa, UniProt F1SM15)             2.94
1  COc1ccc(CCNC(=O)[C@]2(O)C[C@H](C)CC[C@H]2C(C)C)cc1OC  pig TRPM8 (Sus scrofa, UniProt F1SM15)             3.98
2  CC(C)[C@@H]1CC[C@@H](C)C[C@@]1(O)C(=O)NCC(=O)Nc1ccccc1  pig TRPM8 (Sus scrofa, UniProt F1SM15)             3.10
3  CC(C)[C@@H]1CC[C@@H](C)C[C@@]1(O)C(=O)NCCc1ccccc1  pig TRPM8 (Sus scrofa, UniProt F1SM15)             2.92
4  CC(C)[C@@H]1CC[C@@H](C)C[C@@]1(O)C(=O)NC[C@H](O)c1cccc(O)c1  pig TRPM8 (Sus scrofa, UniProt F1SM15)             3.71

Hi team, please reply with log10(EC50) for each item in this list.
1. CC(C)[C@@H]1CC[C@@H](C)C[C@@]1(O)C(=O)NCC(C(=O)OCC(C)(C)N)c1ccccc1 (stereo partly shown) [Example 73, hydrochloride]
2. CC(C)[C@@H]1CC[C@@H](C)C[C@@]1(O)C(=O)NCCc1cccc2c1OCC2
3. COc1cc(C=O)ccc1OC(=O)CNC(=O)[C@]1(O)C[C@H](C)CC[C@H]1C(C)C
4. CC(C)[C@@H]1CC[C@@H](C)C[C@@]1(O)C(=O)NCC(CO)c1ccccc1 (single isomer, unassigned) [Example 90]
5. CC(C)[C@@H]1CC[C@@H](C)C[C@@]1(O)C(=O)NCC(O)c1cccc(CO)c1 (stereo partly shown)
6. CC(=O)O[C@H](CNC(=O)[C@]1(O)C[C@H](C)CC[C@H]1C(C)C)c1ccccc1
7. CC(C)[C@@H]1CC[C@@H](C)C[C@@]1(O)C(=O)NCCc1ccccc1OCCN
8. CC(C)[C@@H]1CC[C@@H](C)C[C@@]1(O)C(=O)N[C@H](CO)Cc1ccccc1

1: 3.05; 2: 3.01; 3: 3.56; 4: 3.30; 5: 3.37; 6: 4.00; 7: 2.37; 8: 3.38

Hi team, please reply with log10(EC50) for each item in this list.
1. Cc1cccc(C(F)(F)CNC(=O)[C@]2(O)C[C@H](C)CC[C@H]2C(C)C)c1
2. CC(C)[C@@H]1CC[C@@H](C)C[C@@]1(O)C(=O)NC[C@@H](NC(=O)[C@H](C)N)c1ccccc1

1. 2.74
2. 1.76
